# Tested on: OVCAR-3
# Protocol details: Cell growth inhibition assay (resazurin, 48 h)
# Type: cell-based, human
# Assay conditions: OVCAR-3, 48 h
Attribute measured: pEC50
Note: pEC50 values are expressed as the negative base-10 logarithm of concentration in M.

Challenge: Query pEC50 on OVCAR-3 for C[C@@]12OC(=O)[C@]1([C@@H](O)[C@@H]1C=CCCC1)NC(=O)[C@@H]2CCCl [Formula II-16, Salinosporamide A]
Response given: 7.31

* * *

# Measurement target: rabbit muscle 20S proteasome, trypsin-like activity (Oryctolagus cuniculus)
# Sequence (G1SWK8 1-271): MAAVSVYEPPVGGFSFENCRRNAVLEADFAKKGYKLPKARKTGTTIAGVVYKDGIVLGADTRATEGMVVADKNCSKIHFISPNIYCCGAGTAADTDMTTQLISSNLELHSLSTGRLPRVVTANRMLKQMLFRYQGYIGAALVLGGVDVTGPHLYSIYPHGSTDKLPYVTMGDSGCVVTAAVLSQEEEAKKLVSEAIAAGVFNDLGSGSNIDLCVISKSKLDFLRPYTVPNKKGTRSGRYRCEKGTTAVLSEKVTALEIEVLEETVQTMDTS
# Protocol details: Trypsin-like activity of purified rabbit 20S proteasome (Boc-LRR-AMC)
Attribute measured: EC50 (nM)
A number alone suffices; assume nM.

Challenge: Report EC50 for C[C@@]12OC(=O)[C@]1([C@@H](O)[C@H]1CCC[C@H]3O[C@@H]13)NC(=O)[C@@H]2CCCl (single isomer, unassigned) tested on rabbit muscle 20S proteasome, trypsin-like activity (Oryctolagus cuniculus).
Response given: 87
